Tested on: SK-MEL-5
test.protocol: NCI tumour cell line growth inhibition, 48 h
The source made the active and inactive calls. No stated cut-off is given here; in the data, active = GI50 up to about 1.1 µM and inactive = higher.

{"columns": ["compound", "GI50"],
 "data": [
  ["CC1C(=O)OCC2=CCN3CCC(OC(=O)C(C)C1(C)O)C23 (stereo unspecified)", "> 100 µM (inactive)"],
  ["C/C(=N\\O)c1cccc(Nc2c3ccccc3nc3occc23)c1", "3.07 µM (inactive)"],
  ["Cc1nn(-c2ccccc2)c2c1N=C(C(=O)O)CC(c1ccccc1)=N2", "> 10 µM (inactive)"],
  ["N#CC(C(=O)Nc1ccccc1)C1=C(Cl)C(=O)c2ccccc2C1=O (stereo unspecified)", "16.1 µM (inactive)"],
  ["CC(C)=NOC(=O)OC[C@H]1O[C@@H](n2cnc3c(N)ncnc32)C(O)C1O (stereo partly specified)", "> 100 µM (inactive)"],
  ["O=C(O/N=c1/ccc(=O)/c(=N\\OC(=O)c2ccccc2)c1=O)c1ccccc1", "> 100 µM (inactive)"]
]}
